molecular target: UniProtKB P17706; test: Degradation assay in HEK293 cells (immunoblotting); format: cell-based; set-up: endogenous in cells; host or cells: HEK293; conditions: 0.2 μM degrader, 16 hours, read-out: % Protein Degradation TC-PTP
Sequence (P17706 whole entry): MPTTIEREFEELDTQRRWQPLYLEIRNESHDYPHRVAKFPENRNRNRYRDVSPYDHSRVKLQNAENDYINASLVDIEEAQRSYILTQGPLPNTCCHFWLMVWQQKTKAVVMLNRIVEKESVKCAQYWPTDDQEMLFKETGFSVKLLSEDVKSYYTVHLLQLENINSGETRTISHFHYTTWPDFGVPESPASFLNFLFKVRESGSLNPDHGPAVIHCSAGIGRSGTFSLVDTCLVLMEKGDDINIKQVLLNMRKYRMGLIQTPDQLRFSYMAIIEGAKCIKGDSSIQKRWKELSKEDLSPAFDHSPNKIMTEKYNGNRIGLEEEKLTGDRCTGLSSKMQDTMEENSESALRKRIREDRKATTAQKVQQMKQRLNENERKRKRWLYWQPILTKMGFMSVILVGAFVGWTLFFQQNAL
*1 amine or outer side, *2 acyl side, *3 side chain or, on linkers, in order; H or OH if unused. Where a SMILES comes first, the peptide text is derived from it. [ ]: non-standard residue; d: D form. The star is where a group is joined. NHBn(4-(4-Me-thiazol-5-yl)) = Cc1ncsc1-c1ccc(CN*)cc1; NHCH2(1,3-C6H4)CH2CO = O=C(Cc1cccc(CN[*:1])c1)[*:2]; F2Pmp = N[C@@H](Cc1ccc(C(F)(F)P(=O)(O)O)cc1)C(=O)O; Phenylacetyl(4-OH,3-OMe) = COc1cc(CC(=O)*)ccc1O; Benzoyl(3-Br,4-Me) = Cc1ccc(C(=O)*)cc1Br; X1 = Cc1ncsc1-c1ccc([C@H](C)N*)cc1; Hyp = O=C(O)[C@@H]1C[C@@H](O)CN1; X3 = O=C(CCC1CCN([*:1])CC1)[*:2]; Tle = CC(C)(C)[C@H](N)C(=O)O; PEG1 = NCCOCCC(=O)O; Ahx = NCCCCCC(=O)O
Doc: threshold 60% (exclusive). Items with percent TC-PTP degradation at 0.2 µM beneath it return YES; others return NO.

Compound	Class assignment
COc1cc(CC(=O)N[C@@H](Cc2ccccc2)C(=O)N[C@@H](Cc2ccc(C(F)(F)P(=O)(O)O)cc2)C(=O)N[C@@H](CCCCNC(=O)c2ccc(C)c(Br)c2)C(=O)NCCOCCC(=O)N[C@H](C(=O)N2C[C@H](O)C[C@H]2C(=O)NCc2ccc(-c3scnc3C)cc2)C(C)(C)C)ccc1O [Compound 28] ({Phenylacetyl(4-OH,3-OMe)}-F[F2Pmp]K(Benzoyl(3-Br,4-Me))[PEG1][Tle][Hyp]-{NHBn(4-(4-Me-thiazol-5-yl))})	YES
COc1cc(CC(=O)N[C@@H](Cc2ccccc2)C(=O)N[C@@H](Cc2ccc(C(F)(F)P(=O)(O)O)cc2)C(=O)N[C@@H](CCCCNC(=O)c2ccc(C)c(Br)c2)C(=O)NCCCCCC(=O)N[C@H](C(=O)N2C[C@H](O)C[C@H]2C(=O)NCc2ccc(-c3scnc3C)cc2)C(C)(C)C)ccc1O [Compound 8] ({Phenylacetyl(4-OH,3-OMe)}-F[F2Pmp]K(Benzoyl(3-Br,4-Me))[Ahx][Tle][Hyp]-{NHBn(4-(4-Me-thiazol-5-yl))})	YES
COc1cc(CC(=O)N[C@@H](Cc2ccccc2)C(=O)N[C@@H](Cc2ccc(C(F)(F)P(=O)(O)O)cc2)C(=O)N[C@@H](CCCCNC(=O)c2ccc(C)c(Br)c2)C(=O)NCCOCCC(=O)N[C@H](C(=O)N2C[C@H](O)C[C@H]2C(=O)N[C@@H](C)c2ccc(-c3scnc3C)cc2)C(C)(C)C)ccc1O [Compound 27] ({Phenylacetyl(4-OH,3-OMe)}-F[F2Pmp]K(Benzoyl(3-Br,4-Me))[PEG1][Tle][Hyp]-X1)	NO
COc1cc(CC(=O)N[C@@H](Cc2ccccc2)C(=O)N[C@@H](Cc2ccc(C(F)(F)P(=O)(O)O)cc2)C(=O)N[C@@H](CCCCNC(=O)c2ccc(C)c(Br)c2)C(=O)NCc2cccc(CC(=O)N[C@H](C(=O)N3C[C@H](O)C[C@H]3C(=O)NCc3ccc(-c4scnc4C)cc3)C(C)(C)C)c2)ccc1O [Compound 48] ({Phenylacetyl(4-OH,3-OMe)}-F[F2Pmp]K(Benzoyl(3-Br,4-Me))[NHCH2(1,3-C6H4)CH2CO][Tle][Hyp]-{NHBn(4-(4-Me-thiazol-5-yl))})	NO
COc1cc(CC(=O)N[C@@H](Cc2ccccc2)C(=O)N[C@@H](Cc2ccc(C(F)(F)P(=O)(O)O)cc2)C(=O)N[C@@H](CCCCNC(=O)c2ccc(C)c(Br)c2)C(=O)N2CCC(CCC(=O)N[C@H](C(=O)N3C[C@H](O)C[C@H]3C(=O)NCc3ccc(-c4scnc4C)cc3)C(C)(C)C)CC2)ccc1O [Compound 58] ({Phenylacetyl(4-OH,3-OMe)}-F[F2Pmp]K(Benzoyl(3-Br,4-Me))[X3][Tle][Hyp]-{NHBn(4-(4-Me-thiazol-5-yl))})	YES
